# Experiment summary: qHTS of pediatric cancer cell lines to identify multiple opportunities for drug repurposing: Confirmatory screen for BT-37 cells (AID 1347117);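 also: viability measured after 48 h of compound exposure; nearly all actives have a fitted effect of over 55% in size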
# Condition info: BT-37 pediatric cancer cells, viability; series mostly up to 45.9 µM
# Method: Drug repurposing or repositioning has been offered as a strategy for drug development in oncology programs. […] [1] Shen, M et al. Quantitative high-throughput phenotypic screening of pediatric cancer cell lines identifies multiple opportunities for drug repurposing. […] Cells were assayed in growth media at a density of 500-1,000 cells/well. […] After a 15 min incubation at room temperature, samples were analyzed for luminescence intensity using a ViewLux High-throughput CCD imager equipped with clear filters.
Inconclusive results are not listed. Active and inactive are the calls of the source. Calls follow the shape of the dose curve; as a rule, active = well fitted cell-killing curve with a large enough effect; inconclusive = small, poorly fitted or top-dose-only effect; inactive = no such curve, though single readings can be large or run the other way.
Result category, one only: Y = active, N = inactive

Hi, sorry to bother you, what did the test record for "C#Cc1cccc(Nc2ncnc3cc(OCCOC)c(OCCOC)cc23)c1" ?
Y

"CS(=O)(=O)c1ccc(C(=O)Nc2ccc(Cl)c(-c3ccccn3)c2)c(Cl)c1" , same question.
N

"CC(C=CC1=C(C)CCCC1(C)C)=CC=CC(C)=CC(=O)O" , same question.
N

====

# Experiment summary: qHTS of pediatric cancer cell lines to identify multiple opportunities for drug repurposing: Primary screen for LAN-5 cells (AID 1347100); also: potency is read from the fitted curve at half-maximal effect
# Condition info: LAN-5 neuroblastoma viability, CellTiter-Glo luminescence, 48 h; series mostly up to 46 µM
Records with an inconclusive call do not appear. The source made the active and inactive calls. Calls follow the shape of the dose curve; as a rule, active = well fitted cell-killing curve with a large enough effect; inconclusive = small, poorly fitted or top-dose-only effect; inactive = no such curve, though single readings can be large or run the other way.
Readout name: Potency

Solved entries (count: 5):
• Fc1ccc(Cl)cc1-c1nc(Nc2ccncc2)c2nccnc2n1 = inactive
• O=C1CCC(N2C(=O)c3ccccc3C2=O)C(=O)N1 (stereo unspecified) = inactive
• Cc1[nH]c(=O)c(C#N)cc1-c1ccncc1 = inactive
• NC(=O)c1ccc(-c2nc(-c3ccc4c(c3)OCO4)c(-c3ccccn3)[nH]2)cc1 = inactive
• S=C(NCc1ccc2c(c1)OCO2)N1CCN(c2ncnc3c2oc2ccccc23)CC1 = 30.3 µM (active)

What measured Potency goes with O=C1CCCC2=C1C(c1[nH]ncc1Cl)N=C(Nc1nc3ccccc3o1)N2 (stereo unspecified) ?
inactive

"NC(=O)c1cnccn1" , same question.
inactive

"O=C(O)[C@@H](c1ccc(OCc2ccc3ccccc3n2)cc1)C1CCCC1" , same question.
inactive

====

# Tested on: CP291
# Experiment summary: qHTS profiling for inhibitors of Plasmodium falciparum proliferation (AID 504749); also: nearly all actives have a fitted effect of over 60% in size
# Condition info: P. falciparum in erythrocytes, SYBR Green DNA, 72 h; series mostly up to 28.7 µM
Results filed as inconclusive are left out. Activity calls are given as the source filed them. The call rests on the fitted dose curve; in most records, active means well fitted inhibition curve with a large enough effect; inconclusive means small, poorly fitted or top-dose-only effect; inactive means flat fitted curve, though single readings scatter.
Result category, one only: yes for active, no for inactive

Hi, sorry to bother you, what did the test record for "O=c1n(CCCN2CCN(c3cccc(Cl)c3)CC2)nc2ccccn12" ?
no

"N=c1nc(N2CCCCC2)cc(N)n1O" , same question.
no

O=C1CCC(N2C(=O)c3ccccc3C2=O)C(=O)N1 (stereo not given) , same question.
no

"Cc1[nH]c(=O)c(C#N)cc1-c1ccncc1" , same question.
no

"Nc1nc2ccc(OC(F)(F)F)cc2s1" , same question.
no

"O=NN(CCCl)C(=O)NCCCl" , same question.
no

"NC(=O)c1cnccn1" , same question.
no

"N#Cc1ccc(C(c2ccc(C#N)cc2)n2cncn2)cc1" , same question.
no

"Cc1cn[nH]c1" , same question.
no

"NCCc1ccc(O)c(O)c1" , same question.
no

"Clc1ccc(Nc2nnc(Cc3ccncc3)c3ccccc23)cc1" , same question.
no

"Cc1oncc1C(=O)Nc1ccc(C(F)(F)F)cc1" , same question.
no

"Cc1ccc(N(CC2=NCCN2)c2cccc(O)c2)cc1" , same question.
no

"NNCCc1ccccc1" , same question.
no

"Cc1[nH]c(=O)c(C#N)cc1-c1ccc2nccn2c1" , same question.
no

CC(C)NCC(O)COc1ccc(COCCOC(C)C)cc1 (stereo not given) , same question.
no

"CCOC(=O)C1=C[C@@]2(CC)CCCN3CCc4c(n1c1ccccc41)[C@H]32" , same question.
yes

"Cn1cnc([N+](=O)[O-])c1Sc1ncnc2nc[nH]c12" , same question.
no

"CNC[C@H](O)c1cccc(O)c1" , same question.
no

"CC(=O)Oc1ccccc1C(=O)O" , same question.
no

Measured values drawn from PubChem BioAssay (NCATS) for this set.
